# study system: GPR120 (Homo sapiens)
# Sequence (Q5NUL3 whole entry, species assumed): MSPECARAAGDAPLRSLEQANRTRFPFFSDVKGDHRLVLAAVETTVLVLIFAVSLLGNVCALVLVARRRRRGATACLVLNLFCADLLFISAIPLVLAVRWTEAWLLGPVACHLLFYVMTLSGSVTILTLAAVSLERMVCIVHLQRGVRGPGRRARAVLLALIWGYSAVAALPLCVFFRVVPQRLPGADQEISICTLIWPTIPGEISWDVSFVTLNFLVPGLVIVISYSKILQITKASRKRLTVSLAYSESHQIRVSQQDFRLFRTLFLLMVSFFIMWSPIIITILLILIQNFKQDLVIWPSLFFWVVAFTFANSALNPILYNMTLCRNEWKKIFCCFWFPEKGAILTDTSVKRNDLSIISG
# protocol: GPR120 Ca2+ flow assay in HEK293 cells stably transfecting the GPR120-Rluc gene
# Type: cell-based
# Parameters: expressed in transfected cells
# assay context: GSK137647A used as a standard
readout type: Emax (FFA4 Ca2+)

- smiles: "O=S(=O)(Nc1ccc(Cl)cc1Cl)c1ccc(-c2ccc3ccccc3c2)cc1"
  measurement: 0.752
- smiles: "Cc1cc(C)c(NS(=O)(=O)c2ccc(-c3ccc(OC(F)(F)F)cc3)cc2)c(C)c1"
  measurement: 1.27
- smiles: "Cc1cc(C)c(NS(=O)(=O)c2ccc(-c3ccc(N)c(F)c3)cc2)c(C)c1"
  measurement: 1.25

[I] O=S(=O)(Nc1ccc(F)cc1)c1ccc(-c2ccc(OC(F)(F)F)cc2)cc1
[II] Cc1cc(C)c(NS(=O)(=O)c2ccc(-c3ccc4ccccc4c3)cc2)c(C)c1
Sorting by Emax (FFA4 Ca2+) in descending order, would I or II appear first? The response must carry the label of the picked entry. I
